Values were extracted from patent US20060140929A1.

Listed here are binders together with their documented Relative Activity (ratio of variant IC50/WT IC50), chromogenic thrombin inhibition assay.
biological target: thrombin; test: cell-based or functional assay
Field format: number, assumed ratio, no unit text.

Examples from the recorded data:
hirudin mutein M 47 (V21P) (other) VVYTDCTESGQNLCLCEGSVPCGQGNKCILGSDGEKNQCVTGEGTPKPESHNDGDFEEIPEEYLQ; 1
hirudin mutein M 21 (I29E L30R) (other) VVYTDCTESGQNLCLCEGSVVCGQGNKCERGSDGEKNQCVTGEGTPKPESHNDGDFEEIPEEYLQ; 1.21
hirudin mutein M 67 (L30N) (other) VVYTDCTESGQNLCLCEGSVVCGQGNKCINGSDGEKNQCVTGEGTPKPESHNDGDFEEIPEEYLQ; 1.54

Q: Look up Relative Activity (ratio of variant IC50/WT IC50), chromogenic thrombin inhibition assay: hirudin mutein M 22 (I29E L30T) (other) VVYTDCTESGQNLCLCEGSVVCGQGNKCETGSDGEKNQCVTGEGTPKPESHNDGDFEEIPEEYLQ
Ans: 1.8

Q: Now give it for hirudin mutein M 14 (I29A L30R) (other) VVYTDCTESGQNLCLCEGSVVCGQGNKCARGSDGEKNQCVTGEGTPKPESHNDGDFEEIPEEYLQ too.
Ans: 2.7
